System: JEG-3
Test: Primary qHTS to identify gynecologic anti-cancer compounds using libraries of approved drugs and bioactive compounds (AID 1345084); note: % is set by controls: 0 for no effect and ±100 for the full control effect; nearly all actives have a fitted effect of over 55% in size
Settings: Gynecologic cancer cell panel viability, ATPlite luminescence, 48 h; series mostly up to 57.5 µM
Records with an inconclusive call do not appear. The source made the active and inactive calls. Calls come from the whole dose curve; as a rule, active = well fitted cell-killing curve with a large enough effect; inconclusive = small, poorly fitted or top-dose-only effect, or effect the other way; inactive = flat fitted curve, though single readings scatter.
endpoint: activity change, negative = cytotoxicity

COC(=O)[C@H](OC(C)=O)[C@H]1C(C)(C)C(=O)[C@H]2CC3=C4CC(=O)O[C@@H](c5ccoc5)[C@]4(C)CCC3[C@@]1(C)C2=O (some centres undefined): inactive
C=C1CC[C@H]2[C@@](C)(CCC(O)[C@@]2(C)CO)[C@@H]1C/C=C(/C(=O)O)C(O)CO (some centres undefined): inactive
CC(=O)[C@@H]1CC[C@]2(C(=O)O)CC[C@]3(C)C(CCC4[C@@]5(C)CC[C@H](O)C(C)(C)C5CC[C@]43C)C12 (some centres undefined): inactive
C=CCc1ccc(O[C@@H]2O[C@H](CO)[C@@H](O)[C@H](O)[C@H]2O)c(OC)c1: inactive
C=C[C@@]1(C)CC(=O)C2[C@](C)(O1)[C@@H](OC(C)=O)[C@@H](O)[C@H]1C(C)(C)CCC[C@]21C (some centres undefined): 7.71% [at 11.6 µM] (inactive)
CC1=CC2(O)/C=C/C(C)(O)CC(O)/C=C/C(=O)OC23C(=O)NC(CC(C)C)C3C1C (centres undefined): inactive
CCCCCCc1cccc(NC(=O)[C@H](N)CCP(=O)(O)O)c1: 8.47% [at 11.6 µM] (inactive)
C=C1C[C@]23C[C@H]1CC[C@H]2[C@]1(C)CCC[C@@]2(CO)C(=O)O[C@H]([C@H]21)[C@@H]3O: inactive
COC(=O)C1=COC(O[C@@H]2O[C@H](CO)[C@@H](O)[C@H](O)[C@H]2O)/C(=C\COC(=O)c2ccc(OC3OC(CO)C(O)C(O)C3O)c(OC)c2)C1CC(=O)OCCc1ccc(O)cc1 (some centres undefined): 2.03% [at 11.6 µM] (inactive)
C[C@@H]1O[C@@H](O[C@H]2[C@H](OC(=O)[C@]34CCC(C)(C)C[C@H]3C3=CCC5[C@@]6(C)C[C@H](O)[C@H](O[C@@H]7O[C@H](CO[C@@H]8OC[C@H](O)[C@H](O)[C@H]8O)[C@@H](O)[C@H](O)[C@H]7O)C(C)(C)C6CC[C@@]5(C)[C@]3(C)C[C@H]4O)OC[C@@H](O)[C@@H]2O)[C@H](O)[C@H](O[C@@H]2OC[C@](O)(CO)[C@H]2O)[C@H]1O[C@@H]1OC[C@H](O)[C@H](O[C@@H]2OC[C@@H](O)[C@H](O)[C@H]2O)[C@H]1O (some centres undefined): -3.85% [at 6.55 µM] (inactive)
C=C(C)C(C)C1OC23CC4(CO2)C(CCC2C5(C)CCC(OC6OCC(O)C(OC7OC(CO)C(O)C(OC8OCC(O)C(O)C8O)C7O)C6OC6OC(CO)C(O)C6O)C(C)(C)C5CCC24C)C3C(C)(O)C1OC(C)=O (centres undefined): -1.98% [at 11.6 µM] (inactive)
CC1CCC2(C(=O)OC3OC(CO)C(O)C(O)C3O)CCC3(C(=O)O)C(=CCC4C5(C)CCC(OC6OC(C)C(O)C(O)C6O)C(C)(C)C5CCC43C)C2C1C (centres undefined): inactive
COC(=O)c1cc(CN2CCN(C(=N)N)CC2)cc(C(=O)N2CCN(C(=O)c3ccc(C(=N)N)cc3)CC2)c1: inactive
C=C1CC[C@H]2[C@@H](/C=C(\C)C(=O)[C@@]3(OC(C)=O)C[C@H](C)[C@H](OC(C)=O)[C@@H]3[C@H]1OC(C)=O)C2(C)C: inactive
C/C(=C\CO)CC/C=C(\C)C(=O)O[C@H]1[C@H](OC2OC=C(C(=O)O)C3CCC(C)(O)C23)O[C@H](CO)[C@@H](O)[C@@H]1O (some centres undefined): inactive
CC(=O)OCC1=C[C@H](O)[C@@H]2C(C(=O)O)=CO[C@@H](O[C@@H]3O[C@H](CO)[C@@H](O)[C@H](O)[C@H]3O)[C@H]12: inactive
C=C1CC2C3(C)C(OC(C)=O)CC(=O)OC(C)(C)C3C(O)C(OC(C)=O)C2(C)C2C(=O)OC(C)C(=O)C12C (centres undefined): inactive
Cn1c(=O)c2nc(/C=C/c3cccc(Cl)c3)n(C)c2n(C)c1=O: inactive
CN1C(=O)c2ccccc2-n2c(nc3ccccc3c2=O)/C1=C/c1ccccc1: inactive
C=Cc1cc(O)cc2nc(-c3ccc(O)c(F)c3)oc12: inactive
C=C(C(=O)O)C1CCC(C)C2CCC(=O)OC2(C)C1 (centres undefined): inactive
COc1cc(/C=C/C(=O)OC2CC(OC(C)=O)C(OC(C)=O)C3C2CCC2C(=O)OC(c4ccoc4)CC23C)ccc1O[C@@H]1O[C@H](CO)[C@@H](O)[C@H](O)[C@H]1O (some centres undefined): inactive
CCCn1cnc2c(NCc3ccccc3)nc(N[C@H](CC)CO)nc21: inactive
COc1ccccc1CC(C(=O)O)N(C)C(=O)c1ccccc1 (centres undefined): inactive
C=C1C[C@]23C[C@H]1CC[C@H]2[C@@]12C=C[C@H](O)[C@@](C)(C(=O)O1)[C@H]2[C@@H]3C(=O)O: inactive
c1ccc(Cc2ncc3c(n2)CCNCC3)cc1: inactive
C/C1=C\C[C@H](O[C@@H]2O[C@H](CO)[C@@H](O)[C@H](O)[C@H]2O)/C(C)=C/[C@H]2OC(=O)[C@H](C)[C@@H]2CC1: inactive
NC(Cc1c[nH]c2ccccc12)C(=O)NC(CCC(=O)O)C(=O)O (centres undefined): inactive
COC12CC3C(C(C)C1=CC(=O)O2)C(O)C(OC(C)=O)C1C(C)(C)C(OC(C)=O)CCC31C (centres undefined): inactive
